- Test system: MOLT-4 leukemia
- assay: NCI-60 one-dose screen, 48 h
- settings: 10 µM
This is part of a sample that, as a whole, favours compounds with a hit. Of some 83,000 tested, about 20% had one in any assay. Activity calls are given as the source filed them. Rule for the calls: active = growth percent below 10; inactive = the rest.
// allowed return values: active, inactive

Solved entries (count: 5):
>>> discretelabel("CCCSc1nc(NC2CC2)c(C#N)c(-c2ccc(OC)cc2)n1")
"inactive"
>>> discretelabel("COc1ccc(/C=C/C(=O)c2ccc(N3CCN(C)CC3)cc2)c(C(F)(F)F)c1")
"inactive"
>>> discretelabel("O=C(Cn1nc(-c2ccccc2)ccc1=O)NN1C(=O)c2ccccc2C1=O")
"inactive"
>>> discretelabel("COc1ccc(C(=O)/C=C/c2cc(F)cc(C(F)(F)F)c2)cc1S(N)(=O)=O")
"active"
>>> discretelabel("N#Cc1c(NC(=O)c2ccc(C(O)(C(F)(F)F)C(F)(F)F)cc2)sc2c1CCC(=O)C2")
"active"

Query block: Hi, do you know how COc1ccc2c3nc4cc(C)c(C)cc4nc3n(CCN(C)C)c2c1 came out in this test?
Result block: active

Query block: Field: outcome | Entry: Cc1cc(C(F)(F)F)ccc1C(=O)Nc1sc2c(c1C#N)CCC(=O)C2
Result block: active

Query block: Field: outcome | Entry: CC(=O)Nc1ccc(-n2cnc3cc(-c4ccc(NS(C)(=O)=O)cc4)ccc32)cc1
Result block: inactive

Query block: Each molecule tested received a call. Report the one for CCOc1ccc(/C=N/NC(=O)Cn2nc(Cc3ccc([N+](=O)[O-])cc3)c3onc(C)c3c2=O)cc1 .
Result block: inactive

Query block: For this molecule, state the assay outcome: O=C(/C=C/Nc1ccccc1)c1ccc2c(c1)Nc1ccccc1S2
Result block: inactive

###

- System: HCC-2998 colon
- assay: NCI-60 one-dose screen, 48 h (100 = growth as untreated, 0 = no growth, -100 = all killed)
- settings: 10 µM
This is part of a sample that, as a whole, favours compounds with a hit. Of some 83,000 tested, about 20% had one in any assay.
Think of 40% as a floor: if growth stands on it or above, it is Condition met; beneath it, Condition not met.

Below are worked cases with known answers.
>>> discretelabel("CS(=O)(=O)Nc1ccc(-c2ccc3c(c2)ncn3-c2ccc(NC(=O)Nc3ccc(Br)cc3)cc2)cc1")
"Condition not met"
>>> discretelabel("O=C1Nc2cc(Cl)ccc2/C1=C/c1ccc(OCc2ccc(Br)cc2F)cc1")
"Condition not met"
>>> discretelabel("O=c1[nH]c2ccccc2cc1CSc1ccc(Nc2nccc(-c3ccc4c(c3)OCO4)n2)cc1")
"Condition met"
>>> discretelabel("C=C1CCC2C3(C)COC(c4cccc(F)c4)OC3CCC2(C)C1CC(O)C1=CCOC1=O (stereo not drawn)")
"Condition met"
>>> discretelabel("O=C(CNc1nc(-c2ccccc2)cs1)Nc1ccc([N+](=O)[O-])cc1Cl")
"Condition not met"

Query block: Quick check, growth >= 40%? CN1C(=O)N(C)C2SC(N/N=C/c3ccccc3)=NC21 (stereo not drawn)
Result block: Condition met

Query block: Decide: growth of O=C(CSc1nnc(-c2c[nH]c3ccccc23)n1-c1ccccc1)c1ccccc1 >= 40%?
Result block: Condition met

###

- System: NCI/ADR-RES ovarian
- assay: NCI-60 one-dose screen, 48 h
- settings: 10 µM
About 83,000 compounds went through this panel and 20% of them were active in at least one assay; those are over-represented in the sample as a whole. The source made the active and inactive calls. The calls were made as follows: active = growth percent below 10; inactive = the rest.
Thanks in advance; please answer with one of these: YES (active), NO (inactive)

>>> discretelabel("CCN1CCN(c2ccc(NC(=O)Nc3ccc(-c4cc(C(=O)NC(C)C)c5ncccc5n4)cc3)cc2C(F)(F)F)CC1")
"YES"
>>> discretelabel("O=c1oc2ccc(-c3ccc(F)cc3F)cc2c(=O)n1-c1ccc(F)cc1")
"YES"
>>> discretelabel("COc1ccc(-c2c(N)c(=O)n(C)c3ccccc23)cc1")
"NO"
>>> discretelabel("CN1CCN(Cc2ccc(NC(=O)c3cncc(C#Cc4cnc5ccc(N[C@H]6CCOC6)nn45)c3)cc2C(F)(F)F)CC1")
"NO"
>>> discretelabel("O=c1oc2ccc(-c3ccc(F)cc3F)cc2c(=O)n1-c1ccc(F)c(Cl)c1")
"YES"

From here, focus on the item given below.
Query block: Recorded test call requested for Oc1ccc(/C=C2\CCCc3cc4ccc(O)cc4[o+]c32)c(O)c1
Result block: YES
